// reported Kd per item
Target: (NANP)6 (Plasmodium falciparum)
Assay: BLI, target on sensor

BINDER	UNIT NAME	Kd
AB-007045 (antibody, V domains shown) VH: QMQLVESGGGVVQPGRSLRLSCTASGFTFSTYAMHWVRQSPGQGLQWVAVISYHSTNKYYEDSVRGRFTISRDNSKNTLYLQMNSLRAEDTAVYYCARDAYSSSFFDFWGQGTLVTVSS VL: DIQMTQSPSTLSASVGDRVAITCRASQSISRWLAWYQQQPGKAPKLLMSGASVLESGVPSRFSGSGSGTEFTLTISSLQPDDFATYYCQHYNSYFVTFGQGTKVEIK	nM	0.703
AB-007055 (antibody, V domains shown) VH: QMQLVESGGGVVQPGRSLRLSCTASGFTFSTYAMHWVRQSPGQGLQWVAVISYHSTNKYYEDSVRGRFTISRDNSKNTLYLQMNSLRAEDTAVYYCARDGYTSSFFDFWGQGTLVTVSS VL: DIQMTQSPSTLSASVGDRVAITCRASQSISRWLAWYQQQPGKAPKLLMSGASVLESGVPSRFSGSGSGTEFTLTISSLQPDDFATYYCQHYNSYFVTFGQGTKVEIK	nM	1.61
AB-007040 (antibody, V domains shown) VH: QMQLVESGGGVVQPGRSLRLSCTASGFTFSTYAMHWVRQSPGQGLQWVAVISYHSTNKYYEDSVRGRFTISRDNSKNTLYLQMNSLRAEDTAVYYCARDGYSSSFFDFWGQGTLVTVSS VL: DIQMTQSPSTLSASVGDRVAITCRASQSISRWLAWYQQQPGKAPKLLMSGASVLESGVPSRFSGSGSGTEFTLTISSLQPDDFATYYCQHYNSYYVTFGQGTKVEIK	nM	0.56
